Hello, the source for this data is paper PMC8595387, in case you need it.

- assaySystem: T1, Recombinant Human ADAMTS13 (Full Length) Protein (Homo sapiens, UniProt Q76LX8)
- T1 construct: ADAMTS13, human, commercial recombinant protein named 'Full Length' by the vendor; also called a disintegrin-like and metalloproteinase with thrombospondin type-1 motif 13; source: bought: R&D Systems (6156-AD-020)
- T1 sequence (Q76LX8 75-1427): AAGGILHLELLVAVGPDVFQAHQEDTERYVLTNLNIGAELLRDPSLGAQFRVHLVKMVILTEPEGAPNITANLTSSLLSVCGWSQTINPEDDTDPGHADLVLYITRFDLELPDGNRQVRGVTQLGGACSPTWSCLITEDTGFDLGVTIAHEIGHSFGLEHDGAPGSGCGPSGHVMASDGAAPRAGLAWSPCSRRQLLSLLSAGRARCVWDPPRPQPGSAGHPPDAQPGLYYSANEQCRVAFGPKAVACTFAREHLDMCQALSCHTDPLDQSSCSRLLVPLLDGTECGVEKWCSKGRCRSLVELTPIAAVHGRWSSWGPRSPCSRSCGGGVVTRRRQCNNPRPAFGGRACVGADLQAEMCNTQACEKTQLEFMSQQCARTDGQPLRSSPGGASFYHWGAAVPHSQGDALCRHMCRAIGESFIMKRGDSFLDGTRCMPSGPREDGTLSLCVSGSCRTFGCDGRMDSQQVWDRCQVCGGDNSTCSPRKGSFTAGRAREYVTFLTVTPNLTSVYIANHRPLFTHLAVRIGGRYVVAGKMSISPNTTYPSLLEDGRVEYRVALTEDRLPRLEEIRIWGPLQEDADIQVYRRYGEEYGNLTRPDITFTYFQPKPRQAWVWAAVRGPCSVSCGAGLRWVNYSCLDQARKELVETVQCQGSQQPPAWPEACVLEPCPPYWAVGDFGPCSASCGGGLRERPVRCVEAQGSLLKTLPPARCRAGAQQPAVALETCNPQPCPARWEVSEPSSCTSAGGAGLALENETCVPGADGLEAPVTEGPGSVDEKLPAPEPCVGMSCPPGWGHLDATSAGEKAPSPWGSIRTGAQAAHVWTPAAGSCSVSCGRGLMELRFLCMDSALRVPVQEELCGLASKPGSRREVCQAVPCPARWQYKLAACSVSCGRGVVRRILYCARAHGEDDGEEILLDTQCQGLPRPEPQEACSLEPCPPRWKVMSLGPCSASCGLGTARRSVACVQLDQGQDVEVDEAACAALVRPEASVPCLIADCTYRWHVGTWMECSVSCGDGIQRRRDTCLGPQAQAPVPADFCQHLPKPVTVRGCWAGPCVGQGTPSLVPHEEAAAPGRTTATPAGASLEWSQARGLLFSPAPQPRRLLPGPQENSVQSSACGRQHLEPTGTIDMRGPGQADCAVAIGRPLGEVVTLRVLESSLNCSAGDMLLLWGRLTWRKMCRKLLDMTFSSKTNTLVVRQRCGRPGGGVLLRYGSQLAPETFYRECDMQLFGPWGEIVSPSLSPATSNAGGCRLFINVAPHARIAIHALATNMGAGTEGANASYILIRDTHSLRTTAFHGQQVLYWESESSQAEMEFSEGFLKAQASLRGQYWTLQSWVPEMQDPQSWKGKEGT
- methodNotes: SPR; Biacore T200; antibodies captured at about 1,000 RU on anti-human or anti-mouse IgG (Fc) on a CM5 chip; ADAMTS13 injected at 80 nM to 0.625 nM in PBS with 0.05% Tween 20; 25 C; 30 uL/min; contact 240 s, dissociation 900 s; 1:1 binding model
- reportedConditions: both partners purified
propertyMeasured: kon (M⁻¹ s⁻¹)
// return numeric value only (unit: M⁻¹ s⁻¹, not printed)

See these solved cases before continuing.
>>> testvalue("human-mouse chimeric A10 (antibody, V domains shown) VH: EVQLQQSGPELVKPGTSMKISCKASGYSFTGYTMHWVKQSHGKNLEWIGLINPYNGGTGYNQKFKGKATLTVDKSSSTTYIELLSLTSEDSAVYYCARTSGYLFAYWGQGTLVTVSA VL: DIQMTQSSSSFSVSLGDRVTITCKASEDIYNRLAWYQQKPGNAPRLLISGATSLETGVPSRFSGSGSGKDYIFSITSLQTEDVATYYCQQYWSSPLTFGAGTKLELK")
7270
>>> testvalue("humanized A10 antibody A10/16E8 (antibody, V domains shown, VH of A10/16E8 (CDRs and flanking FR residues of mA10 grafted onto the human framework 16E8); VL of A10/16E8 (CDRs and flanking FR residues of mA10 grafted onto the human framework 16E8); also called A10/16A8 (as printed once in the discussion); source: Expi293F, transiently transfected, purified (protein G)) VH: QVQLVQSGGQVKKPGASVKISCKASGYSFTGYTMHWVKQAPGRGLEWIGLINPYNGGTGYNQKFKGKATLTVDKSSSTTYIELLSLTSEDSAVYYCARTSGYLFAYWGQGTLVTVSS VL: DIVLTQTPDSLAVSLGERATITCKASEDIYNRLAWYQQKAGQPPKLLISGATSLETGVPDRFSGSGSGTDFTLTISSLQAEDVATYYCQQYWSSPLTFGAGTKVNIK")
12400

Lab note: mouse anti-ADAMTS13 antibody clone A10 (antibody, V domains shown, VH of mA10; mouse heavy chain constant region cloned from the mA10 hybridoma; VL of mA10; mouse light chain constant region cloned from the mA10 hybridoma; Whole mouse IgG; mouse IgG2b served as the negative control, which may hint at IgG2b (surmise); also called mA10; mouse A10; source: Expi293F, transiently transfected, purified (protein G)) VH: EVQLQQSGPELVKPGTSMKISCKASGYSFTGYTMHWVKQSHGKNLEWIGLINPYNGGTGYNQKFKGKATLTVDKSSSTTYIELLSLTSEDSAVYYCARTSGYLFAYWGQGTLVTVSA VL: DIQMTQSSSSFSVSLGDRVTITCKASEDIYNRLAWYQQKPGNAPRLLISGATSLETGVPSRFSGSGSGKDYIFSITSLQTEDVATYYCQQYWSSPLTFGAGTKLELK gave kon of 60400

Entry humanized A10 antibody A10/8A7 (antibody, V domains shown) VH: QIHLVESGGGVVQTGKSMKISCKASGYSFTGYTMHWVKQTPGKNLEWIGLINPYNGGTGYNQKFKGKATLTVDKSSSTTYIELLSLTSEDSAVYYCARTSGYLFAYWGQGTLVTVSS VL: ETVMTQSPATLSVSPGERATITCKASEDIYNRLAWYQQKPGQAPRLLISGATSLETGVPSRFSGSGSGTEFTLTISSLQSEDVATYYCQQYWSSPLTFGAGTKLEIK — recorded kon = 9270
